STUDY_TARGET: human FGFR2b extracellular domain (human, UniProt P21802)
Sequence (P21802 22-377): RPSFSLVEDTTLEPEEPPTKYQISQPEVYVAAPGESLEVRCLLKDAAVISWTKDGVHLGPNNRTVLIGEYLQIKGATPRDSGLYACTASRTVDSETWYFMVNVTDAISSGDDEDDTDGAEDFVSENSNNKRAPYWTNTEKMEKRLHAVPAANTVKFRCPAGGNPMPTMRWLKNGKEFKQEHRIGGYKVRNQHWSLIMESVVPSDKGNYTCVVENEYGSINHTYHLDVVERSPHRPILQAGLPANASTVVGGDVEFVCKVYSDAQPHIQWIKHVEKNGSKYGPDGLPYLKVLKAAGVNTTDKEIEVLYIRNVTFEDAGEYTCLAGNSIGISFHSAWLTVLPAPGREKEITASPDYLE
ASSAY_INFO: ELISA
MEASURED_QUANTITY: EC50
Record the result as a number with its unit.

Please fill in: EC50 reported for 3E1 (antibody, V domains shown) VH: QVQLQQPGAEVVKPGASVKMSCKASGYTFTDYYIHWVKQTPGQGLEWIGAIYPDNGDTSYNQKFKVKATLTADKSSSTAYMQLSSLTSEDSAVYYCARAFTYWGQGTLVTVSA VL: DILITQSPASLSASVGETVTITCGASENIYGALNWYQRKQGKSPQLLIYGATNLADGMSSRFSGSGSGRQYSLKISSLHPDDVATYYCQNVLSTPYTFGGGTKLEIK = 0.0156 µg/mL

The recorded EC50 for entry 3E2 (antibody, V domains shown) VH: EIQLQQSGAELVKPGASVKMSCKASGYTFSFYNMHWVKRTPGQGLEWIGLIYPDNGDTSYNQKFKGKATLTADTSSSTAYMQLSSLTSEDSAVYYCARGGLDYWGQGTSLTVSS VL: NIVMTQSQKFMSTSVGDRVSVTCKASQNVGTNVAWYQQKPGQSPKALIYSASYRYTGVPDRFTGSGSGTDFTFTISSVQAEDLAVYYCQQHYSTPYTFGGGTKLEIK equals 0.0235 µg/mL
